target: human orexin 2 receptor (Homo sapiens (Human), UniProt O43614); test: Human orexin 2 receptor radioligand binding; conditions: human orexin 2 receptor; averages of 2-20 runs; read-out: hOX2 Ki
Sequence (O43614 whole entry): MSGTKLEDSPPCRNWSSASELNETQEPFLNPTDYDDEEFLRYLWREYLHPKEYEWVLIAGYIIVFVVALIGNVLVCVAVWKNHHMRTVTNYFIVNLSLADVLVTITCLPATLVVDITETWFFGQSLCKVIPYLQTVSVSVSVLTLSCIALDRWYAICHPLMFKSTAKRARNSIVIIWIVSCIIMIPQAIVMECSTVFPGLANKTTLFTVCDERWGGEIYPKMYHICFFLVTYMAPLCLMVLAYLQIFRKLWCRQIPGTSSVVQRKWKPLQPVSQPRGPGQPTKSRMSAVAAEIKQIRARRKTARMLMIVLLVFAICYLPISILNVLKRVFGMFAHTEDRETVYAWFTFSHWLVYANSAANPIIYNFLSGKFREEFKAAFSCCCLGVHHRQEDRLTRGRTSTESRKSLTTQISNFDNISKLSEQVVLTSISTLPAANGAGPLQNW
pKi: −log10 of the molar value.
OBSERVATION TYPE: pKi

> print(dat)
                                   compound                            assayed.target  observation.type  observed.measurement
1  Cc1cnc(C(=O)N2C[C@H]3C[C@@H](Nc4cnc(C(F)(F)F)cn4)[C@@H]2C3)c(-n2nccn2)c1 [Example 187]  human orexin 2 receptor (Homo sapiens (Human), UniProt O43614)               pKi                  5.80

I: Cc1ccc(-n2nccn2)c(C(=O)N2C[C@H]3C[C@@H](Nc4nc5ccccc5o4)[C@@H]2C3)n1 [Example 181]
II: Cc1cnc(O[C@@H]2C[C@H]3C[C@@H]2N(C(=O)c2ccccc2-n2nccn2)C3)nc1 [Example 131]
III: CN(c1ccc(C(F)(F)F)cn1)[C@@H]1C[C@H]2C[C@@H]1N(C(=O)c1cccc(F)c1-c1ncccn1)C2 [Example 157]
Challenge: Would you mind ranking these compounds by ascending pKi? Show the ranking through the labels, in the order asked for.
Response given: II, III, I
(II: 5.66, III: 6.45, I: 6.79)

* * *

target: human orexin 1 receptor (Homo sapiens); assay: Human orexin 1 receptor radioligand binding; conditions: human orexin 1 receptor; averages of 2-20 runs; read-out: hOX1 Ki
OBSERVATION TYPE: Ki (nM)

> print(dat)
                               smiles.entry  observed.measurement
1  O=C(c1c(F)cccc1-c1ncccn1)N1C[C@H]2C[C@@H](Nc3ncc(C(F)(F)F)cn3)[C@@H]1C2                    11
2  O=C(c1ccccc1-n1nccn1)N1C[C@H]2C[C@@H](Oc3ccc(C(F)(F)F)cn3)[C@@H]1C2                    13
3  Cc1ccc(-c2ncccn2)c(C(=O)N2C[C@H]3C[C@@H](Nc4ccc(C(F)(F)F)cn4)[C@@H]2C3)n1                     9
4  O=C(c1ccc(F)cc1-n1nccn1)N1C[C@H]2C[C@@H](Oc3ccc(C(F)(F)F)cn3)[C@@H]1C2                    39
5  Cc1ccc(-c2ncccn2)c(C(=O)N2C[C@H]3C[C@@H](Oc4ncc(Cl)cn4)[C@@H]2C3)n1                   215

A: Cc1ccc(-n2nccn2)c(C(=O)N2C[C@H]3C[C@@H](Oc4ccc(C(F)F)cn4)[C@@H]2C3)n1
B: O=C(c1cc(F)ccc1-c1ncccn1)N1C[C@@H]2CC[C@H]1[C@H](Oc1ccc(C(F)(F)F)cn1)C2
Challenge: Could you tell me which of these two has the smaller Ki figure? First: A Second: B API: response body contains the label of the selected item.
Response given: B

* * *

biological target: rat orexin 1 receptor (Rattus norvegicus); assay: Rat orexin 1 receptor radioligand binding; settings: rat orexin 1 receptor; averages of 2-20 runs; read-out: rOX1 Ki
OBSERVATION TYPE: Ki (nM)

> print(dat)
                               smiles.entry  observed.measurement
1  O=C(c1cccc(F)c1-c1ncccn1)N1C[C@H]2C[C@@H](Nc3ncc(C(F)(F)F)cn3)[C@@H]1C2                     7
2  O=C(c1nccnc1-c1ccccc1)N1C[C@H]2C[C@@H](Oc3ccc(C(F)(F)F)cn3)[C@@H]1C2                   125
3  COCCN(c1ccc(C(F)(F)F)cn1)[C@@H]1C[C@H]2C[C@@H]1N(C(=O)c1cccc(F)c1-c1ncccn1)C2                    19
4  O=C(c1cc(F)ccc1-c1ncccn1)N1C[C@H]2C[C@@H](Oc3cnc(C(F)(F)F)cn3)[C@@H]1C2                    69
5  O=C(c1ccccc1-c1ncccn1)N1C[C@H]2C[C@@H](Nc3ccc(C(F)(F)F)cn3)[C@@H]1C2                     3

1: Cc1cnc(O[C@@H]2C[C@H]3C[C@@H]2N(C(=O)c2nc(C)ccc2-n2nccn2)C3)nc1
2: O=C(c1cccc(F)c1-c1ncccn1)N1C[C@H]2C[C@@H](Oc3ncc(Cl)cn3)[C@@H]1C2
Challenge: Would you let me know which has the greater Ki value, 1 or 2 ? API: response body contains the label of the selected item.
Response given: 1
